Reported Ki for target or system cloned rat KOR (Rattus norvegicus), by entry.
Where a SMILES comes first, the peptide text is derived from it.

{"MOLECULE": "CC(C)[C@H](NC(=O)[C@H](CCCCN)NC(=O)[C@H](Cc1ccccc1)NC(=O)[C@H](CCC(N)=O)NC(=O)[C@H](CCCNC(=N)N)NC(=O)[C@H](CCCNC(=N)N)NC(=O)[C@H](C)NC(=O)[C@H](Cc1ccccc1)NC(=O)CNC(=O)CNC(=O)[C@@H](N)Cc1ccc(O)cc1)C(=O)N[C@H](C(=O)N[C@H](C(N)=O)[C@@H](C)O)C(C)C [Compound 3] (H-YGGFARRQFKVVT-NH2)", "Ki": "12.1 nM"}
{"MOLECULE": "CC(C)C[C@H](NC(=O)[C@H](Cc1ccccc1)NC(=O)CNC(=O)CNC(=O)[C@@H](N)Cc1ccc(O)cc1)C(=O)N[C@@H](CCCNC(=N)N)C(=O)N[C@@H](CCCNC(=N)N)C(=O)N[C@@H](CCC(N)=O)C(=O)N[C@@H](Cc1ccccc1)C(=O)N[C@@H](CCCCN)C(=O)N[C@H](C(=O)N[C@H](C(=O)N[C@H](C(N)=O)[C@@H](C)O)C(C)C)C(C)C [Dyn B amide, reference compound]", "Ki": "6.3 nM"}
{"MOLECULE": "CC(C)C[C@H](NC(=O)[C@H](Cc1ccccc1)NC(=O)CNC(=O)CNC(=O)[C@@H](N)Cc1ccc(O)cc1)C(=O)N[C@@H](C)C(=O)N[C@@H](CCCNC(=N)N)C(=O)N[C@@H](CCC(N)=O)C(=O)N[C@@H](Cc1ccccc1)C(=O)N[C@@H](CCCCN)C(=O)N[C@H](C(=O)N[C@H](C(=O)N[C@H](C(N)=O)[C@@H](C)O)C(C)C)C(C)C [Compound 4] (H-YGGFLARQFKVVT-NH2)", "Ki": "43.1 nM"}

---

# Lookup of reported pKi keyed by entry
biological target: mouse DOR (Mus musculus, UniProt P32300); assay: Radioligand binding assay, DOR; conditions: SEM
Sequence (P32300 whole entry): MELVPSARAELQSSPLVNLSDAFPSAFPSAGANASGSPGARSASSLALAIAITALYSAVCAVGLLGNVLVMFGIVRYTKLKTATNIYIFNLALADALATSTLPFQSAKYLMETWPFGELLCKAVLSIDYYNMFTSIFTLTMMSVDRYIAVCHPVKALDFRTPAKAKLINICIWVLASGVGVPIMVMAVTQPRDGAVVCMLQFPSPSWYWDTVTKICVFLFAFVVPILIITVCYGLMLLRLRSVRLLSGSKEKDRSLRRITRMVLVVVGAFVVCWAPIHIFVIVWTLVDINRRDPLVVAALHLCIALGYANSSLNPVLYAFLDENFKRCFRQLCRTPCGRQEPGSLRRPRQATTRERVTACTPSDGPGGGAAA
pKi: −log10 of the molar value. Where a SMILES comes first, the peptide text is derived from it.
MEASURE: pKi

{"COMPOUND": "CC(C)C[C@H](NC(=O)[C@H](Cc1ccccc1)NC(=O)CNC(=O)CNC(=O)[C@@H](N)Cc1ccc(O)cc1)C(=O)N[C@@H](C)C(=O)N[C@@H](CCCNC(=N)N)C(=O)N[C@@H](CCC(N)=O)C(=O)N[C@@H](Cc1ccccc1)C(=O)N[C@@H](CCCCN)C(=O)N[C@H](C(=O)N[C@H](C(=O)N[C@H](C(N)=O)[C@@H](C)O)C(C)C)C(C)C [Compound 4] (H-YGGFLARQFKVVT-NH2)", "RESULT NUMBER": 7.59}
{"COMPOUND": "CC(C)C[C@H](NC(=O)[C@H](Cc1ccccc1)NC(=O)CNC(=O)CNC(=O)[C@@H](N)Cc1ccc(O)cc1)C(=O)N[C@@H](CCCNC(=N)N)C(=O)N[C@@H](CCCNC(=N)N)C(=O)N[C@@H](C)C(=O)N[C@@H](Cc1ccccc1)C(=O)N[C@@H](CCCCN)C(=O)N[C@H](C(=O)N[C@H](C(=O)N[C@H](C(N)=O)[C@@H](C)O)C(C)C)C(C)C [Compound 6] (H-YGGFLRRAFKVVT-NH2)", "RESULT NUMBER": 7.27}
{"COMPOUND": "CC(C)C[C@H](NC(=O)[C@H](Cc1ccccc1)NC(=O)CNC(=O)CNC(=O)[C@@H](N)Cc1ccc(O)cc1)C(=O)N[C@@H](CCCNC(=N)N)C(=O)N[C@@H](C)C(=O)N[C@@H](CCC(N)=O)C(=O)N[C@@H](Cc1ccccc1)C(=O)N[C@@H](CCCCN)C(=O)N[C@H](C(=O)N[C@H](C(=O)N[C@H](C(N)=O)[C@@H](C)O)C(C)C)C(C)C [Compound 5] (H-YGGFLRAQFKVVT-NH2)", "RESULT NUMBER": 7.17}
{"COMPOUND": "CC(C)C[C@H](NC(=O)[C@H](Cc1ccccc1)NC(=O)CNC(=O)CNC(=O)[C@@H](N)Cc1ccc(O)cc1)C(=O)N[C@@H](CCCNC(=N)N)C(=O)N[C@@H](CCCNC(=N)N)C(=O)N[C@@H](CCC(N)=O)C(=O)N[C@@H](C)C(=O)N[C@@H](CCCCN)C(=O)N[C@H](C(=O)N[C@H](C(=O)N[C@H](C(N)=O)[C@@H](C)O)C(C)C)C(C)C [Compound 7] (H-YGGFLRRQAKVVT-NH2)", "RESULT NUMBER": 7.38}
{"COMPOUND": "CC(C)C[C@H](NC(=O)[C@H](Cc1ccccc1)NC(=O)CNC(=O)CNC(=O)[C@@H](N)Cc1ccc(O)cc1)C(=O)N[C@@H](CCCNC(=N)N)C(=O)N[C@@H](CCCNC(=N)N)C(=O)N[C@@H](CCC(N)=O)C(=O)N[C@@H](Cc1ccccc1)C(=O)N[C@@H](CCCCN)C(=O)N[C@H](C(=O)N[C@H](C(=O)N[C@H](C(N)=O)[C@@H](C)O)C(C)C)C(C)C [Dyn B amide, reference compound]", "RESULT NUMBER": 7.36}
{"COMPOUND": "CC(C)[C@H](NC(=O)[C@H](CCCCN)NC(=O)[C@H](Cc1ccccc1)NC(=O)[C@H](CCC(N)=O)NC(=O)[C@H](CCCNC(=N)N)NC(=O)[C@H](CCCNC(=N)N)NC(=O)[C@H](C)NC(=O)[C@H](Cc1ccccc1)NC(=O)CNC(=O)CNC(=O)[C@@H](N)Cc1ccc(O)cc1)C(=O)N[C@H](C(=O)N[C@H](C(N)=O)[C@@H](C)O)C(C)C [Compound 3] (H-YGGFARRQFKVVT-NH2)", "RESULT NUMBER": 6.58}
{"COMPOUND": "CC(C)C[C@H](NC(=O)[C@H](Cc1ccccc1)NC(=O)CNC(=O)CNC(=O)[C@@H](N)Cc1ccc(O)cc1)C(=O)N[C@@H](CCCNC(=N)N)C(=O)N[C@@H](CCCNC(=N)N)C(=O)N[C@@H](CCC(N)=O)C(=O)N[C@@H](Cc1ccccc1)C(=O)N[C@@H](C)C(=O)N[C@H](C(=O)N[C@H](C(=O)N[C@H](C(N)=O)[C@@H](C)O)C(C)C)C(C)C [Compound 8] (H-YGGFLRRQFAVVT-NH2)", "RESULT NUMBER": 6.92}
{"COMPOUND": "CC(C)C[C@H](NC(=O)[C@H](Cc1ccccc1)NC(=O)CNC(=O)CNC(=O)[C@@H](N)Cc1ccc(O)cc1)C(=O)N[C@@H](CCCNC(=N)N)C(=O)N[C@@H](CCCNC(=N)N)C(=O)N[C@@H](CCC(N)=O)C(=O)N[C@@H](Cc1ccccc1)C(=O)N[C@@H](CCCCN)C(=O)N[C@@H](C)C(=O)N[C@H](C(=O)N[C@H](C(N)=O)[C@@H](C)O)C(C)C [Compound 9] (H-YGGFLRRQFKAVT-NH2)", "RESULT NUMBER": 7.23}
